Catalogue of inhibition at 10 µM readings, one per entry.
# testedOn: rat B1R (bradykinin receptor 1) (Rattus norvegicus)
# Construct: expressed in transfected cells; host or cells: CHO K1 cells
# Sequence (P97583 1-337): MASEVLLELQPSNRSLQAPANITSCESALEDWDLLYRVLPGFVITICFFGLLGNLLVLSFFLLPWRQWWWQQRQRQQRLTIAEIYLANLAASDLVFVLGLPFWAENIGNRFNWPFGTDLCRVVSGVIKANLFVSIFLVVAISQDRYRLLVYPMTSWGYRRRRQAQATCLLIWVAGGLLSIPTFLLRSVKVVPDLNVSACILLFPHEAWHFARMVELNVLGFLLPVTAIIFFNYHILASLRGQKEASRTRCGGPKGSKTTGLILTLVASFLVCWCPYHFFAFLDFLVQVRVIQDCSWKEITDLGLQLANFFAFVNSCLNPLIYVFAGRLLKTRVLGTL
# experimentSummary: FLIPR Ca2+ assay (Fluo-4) on CHO K1 cells stably transfected with the B1R gene of the rat (rB1R cells): % inhibition at 10 μM / IC50, agonist Des-Arg9-bradykinin
# Type: cell-based
# conditions: CHO-K1, rat B1R

A selection of reference data follows.
{"compound": "O=C(NC1CCc2ccc(C(=O)N3CCC4(CC3)CCN(c3ccc(C(F)(F)F)cc3)CC4)cc21)c1cc(F)ccc1Cl (stereo not shown) [IND_CC-222]", "testedOn": "rat B1R (bradykinin receptor 1) (Rattus norvegicus)", "observedResult": "60%"}
{"compound": "O=C(NC1CCc2ccc(C(=O)N3CCC4(CC3)CCN(c3cccnc3)CC4)cc21)c1sccc1Cl (stereo not shown) [Ind_CC-102]", "testedOn": "rat B1R (bradykinin receptor 1) (Rattus norvegicus)", "observedResult": "100%"}
{"compound": "O=C(c1ccc2c(c1)[C@H](NS(=O)(=O)c1c(Cl)cccc1Cl)CC2)N1CCC2(CCN(c3ccncc3)CC2)C1 [Example H-119]", "testedOn": "rat B1R (bradykinin receptor 1) (Rattus norvegicus)", "observedResult": "100%"}

inhibition at 10 µM lookup needed for CN(C(=O)c1ccccc1Cl)C1CCc2ccc(C(=O)N3CCC4(CCN(Cc5ccc6nccnc6c5)CC4)C3)cc21 (stereo not shown) [IND_CC-506] , thanks.
61%

inhibition at 10 µM lookup needed for O=C(c1ccc2c(c1)[C@H](N(CC(F)(F)F)C(=O)c1ccccc1Cl)CC2)N1CCC2(CCN(c3ccncc3)CC2)C1 [Example H-137] , thanks.
103%

inhibition at 10 µM lookup needed for CC(C)(C)CC(=O)N1CCC2(CC1)CCN(C(=O)c1ccc3c(c1)C(NC(=O)c1sccc1Cl)CC3)C2 (stereo not shown) [IND_CC-583] , thanks.
75%

inhibition at 10 µM lookup needed for CC(C)CC(=O)NC1CCc2ccc(C(=O)N3CCC4(CCN(c5ccncc5)CC4)C3)cc21 (stereo not shown) [IND_CC-409] , thanks.
102%
